Numbers sourced from ChEMBL document CHEMBL1201862.

Tested on: HOP-62
measurement_notes: NCI tumour cell line growth inhibition, 48 h
Activity calls are given as the source filed them. No stated cut-off is given here; in the data, active = GI50 up to about 1.1 µM and inactive = higher.
GI50 values for the compounds below.

>  <compound>
C=C(C)[C@@H]1CC[C@]2(C)CC[C@]3(C)[C@H](CC[C@@H]4[C@@]5(C)CC[C@H](OC(=O)c6ccccc6)C(C)(C)[C@@H]5CC[C@]43C)[C@@H]12

>  <tested_target>
HOP-62

>  <GI50>
> 100 µM (inactive)

$$$$
>  <compound>
COc1ccc(C[C@@H](CO)NC2=C(C#N)CCC2)cc1

>  <tested_target>
HOP-62

>  <GI50>
56.5 µM (inactive)

$$$$
>  <compound>
C=C1C(=O)OC2CC(C)C3CC(O)OC(OCC)C3(C)CC12 (centres undefined)

>  <tested_target>
HOP-62

>  <GI50>
20.9 µM (inactive)

$$$$
>  <compound>
CSCSCC(N)CO.Cc1[nH]c(=O)[nH]c(=O)c1/C=C/C(=O)O

>  <tested_target>
HOP-62

>  <GI50>
> 625 µM (inactive)

$$$$
>  <compound>
Cc1ccc(C(=O)N/N=C(\N=N\c2ccc([N+](=O)[O-])cc2)c2ccc(N(CCC#N)CCC#N)cc2C)cc1

>  <tested_target>
HOP-62

>  <GI50>
71.4 µM (inactive)

$$$$
>  <compound>
COc1cccc2c(NNc3ccccc3)c3ccc([N+](=O)[O-])cc3nc12

>  <tested_target>
HOP-62

>  <GI50>
60.4 µM (inactive)

$$$$
>  <compound>
O=C(c1ccc(Cl)cc1)C1OC12C(=O)Nc1ccccc12 (centres undefined)

>  <tested_target>
HOP-62

>  <GI50>
35.1 µM (inactive)

$$$$
>  <compound>
OC12CCCCCC1(N1CCOCC1)c1ccccc12 (centres undefined)

>  <tested_target>
HOP-62

>  <GI50>
> 100 µM (inactive)

$$$$
>  <compound>
S=C(NCCCCCCNC(=S)Nc1c2ccccc2nc2ccccc12)Nc1c2ccccc2nc2ccccc12

>  <tested_target>
HOP-62

>  <GI50>
> 89.3 µM (inactive)

$$$$

###

GI50 values for the compounds below.
Test system: OVCAR-5
measurement_notes: NCI tumour cell line growth inhibition, 48 h
Active and inactive are the calls of the source. No stated cut-off is given here; in the data, active = GI50 up to about 1.1 µM and inactive = higher.

>  <compound>
C=C1C(=O)OC2/C=C(/C)C3CC(O)C(C)(CC(OC(=O)/C(C)=C/C)C12)O3 (stereo not given)

>  <GI50>
8.61 µM (inactive)

$$$$
>  <compound>
CCOC(=O)[C@@H]1ON2O[C@H](OC3CCCC3(c3ccccc3)c3ccccc3)C[C@H]3OC(=O)[C@@H]1C32 (stereo not given in full)

>  <GI50>
> 100 µM (inactive)

$$$$
>  <compound>
COC(=O)N1CC2C3C4CC(C(c5ccccc5)=C4c4ccccc4)C3C21 (stereo not given)

>  <GI50>
27.7 µM (inactive)

$$$$
>  <compound>
CC(=O)Nc1ccc(S(=O)(=O)/N=C2\C=CC(=O)c3ccccc32)cc1

>  <GI50>
8.55 µM (inactive)

$$$$
>  <compound>
BrCC[P+](c1ccccc1)(c1ccccc1)c1ccccc1

>  <GI50>
10.8 µM (inactive)

$$$$
>  <compound>
O=[N+]([O-])c1nccn1CC(O)c1ccc(F)cc1 (stereo not given)

>  <GI50>
> 100 µM (inactive)

$$$$
>  <compound>
c1ccc2c(c1)nnn2C1CCCCO1 (stereo not given)

>  <GI50>
> 100 µM (inactive)

$$$$
>  <compound>
Cn1cc(NC(=O)c2cc(NC(=O)CCCCCC(=O)Nc3cc(C(=O)Nc4cc(C(=O)NCCC(=N)N)n(C)c4)n(C)c3)cn2C)cc1C(=O)NCCC(=N)N

>  <GI50>
> 100 µM (inactive)

$$$$
>  <compound>
COc1ccc(C2C3=C(COC3=O)OC(C)(C)Oc3cc4c(cc32)OCO4)cc1OC (stereo not given)

>  <GI50>
> 77.8 µM (inactive)

$$$$
>  <compound>
O=C1OCC(CN2CCC(n3c(=O)[nH]c4ccccc43)CC2)=C1c1ccccc1

>  <GI50>
41 µM (inactive)

$$$$
>  <compound>
COC(=O)C(CBr)CBr

>  <GI50>
16.8 µM (inactive)

$$$$
>  <compound>
Cc1ccsc1/C=N/Nc1ncccn1

>  <GI50>
> 100 µM (inactive)

$$$$
>  <compound>
CC(=O)O[C@H]1C(=O)[C@@]2(C)C(C(OC(=O)c3ccccc3)[C@]3(O)CC(OC(=O)C(O)C(NC(=O)c4ccccc4)c4cccc(Cl)c4)C(C)=C1C3(C)C)[C@]1(OC(C)=O)CO[C@@H]1C[C@@H]2O (stereo not given in full)

>  <GI50>
4.15 µM (inactive)

$$$$
>  <compound>
COC(=O)C1CCOC(C)N1C(=O)OC(C)(C)C (stereo not given)

>  <GI50>
> 100 µM (inactive)

$$$$
>  <compound>
COC(=O)C1=C(C)N(NC(N)=O)C2(N)N(NC(N)=O)C(C)=C(C(=O)OC)C12C(=O)OC (stereo not given)

>  <GI50>
> 100 µM (inactive)

$$$$
>  <compound>
CC(/C=N/N(C)C1=NCCCCN1)=N/N(C)C1=NCCCCN1

>  <GI50>
> 100 µM (inactive)

$$$$
>  <compound>
COc1ccc2c(c1)c(=O)c1c(NCCN(C)C)ccc3c(=O)n(CCN(C)C)c(=O)n2c31

>  <GI50>
0.254 µM (active)

$$$$
>  <compound>
O=C(/C=C/c1ccc(Cl)c(Cl)c1)CCN1CCN(CCC(=O)/C=C/c2ccc(Cl)c(Cl)c2)CC1

>  <GI50>
19.2 µM (inactive)

$$$$
>  <compound>
N#Cc1ccc(/C=[N+](/C=c2ccc(=C=[N-])cc2)N(CCO)C2=NCCN2)cc1

>  <GI50>
> 100 µM (inactive)

$$$$
>  <compound>
O=c1[nH]c(C23CC4CC(CC(C4)C2)C3)cc2c1c(=O)oc1ccccc12

>  <GI50>
4.82 µM (inactive)

$$$$
